Let's look at some binders and their measured EC50 of Phagocytosis assay, IgG1, Kappa; OVCAR3.
- MEASUREMENT TARGET: T1, human CD24 on cells (human, UniProt P25063 27-59)
- T1 chain (looked up): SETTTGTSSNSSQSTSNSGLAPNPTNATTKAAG
- EXPERIMENT: cell-based or functional assay
PARAMETER MEASURED: EC50 of Phagocytosis assay, IgG1, Kappa; OVCAR3 (mg/L)

- BINDER: "63-B10B9, IgG1, Kappa (antibody, V domains shown) VH: EVQLQQSGPELVKPGASVKISCKASGYSFTGYYMNWVKQSPEKSLEWIGEINPITGGTTYNQKFRAKATLTVDRSSSTAYMQLKSLTSEDSAVYYCTKRDYDTSLDYWGQGTTLIVSS VL: DVQITQSPSYLAAFPGETITINCRASKSIKKYLAWYQEKPGKTNNLLIYSGSTLQSGIPSRFSGSGTGTDFTLTISSLEPEDFAMYYCQQHNEYPLTFGAGTKLELK"
  OBSERVED RESULT: 0.56
- BINDER: "59-G9D7, IgG1, Kappa (antibody, V domains shown) VH: QVQLQQPGADLVKPGASVKLSCKASGYTVTTYWMHWVRQRPGRGLEWIGRIDPNSGETKYSEKFKNKATLTVDRPSSTAYMQLSSLTFEDSAVYFCAIYYYLNNFLFDYWGQGTTLTVSS VL: ENVLTQSPAIMSASPGEKVTMTCRASSSVSSSYLHWYQKKSGASPKLWIYSTSNLASGVPARFSGSGSGTSYSLTISSVEAEDAATYYCQQYSGYPLTFGAGTKLELK"
  OBSERVED RESULT: 0.97
- BINDER: "62-F7E9, IgG1, Kappa (antibody, V domains shown) VH: QVQLQQPGAELVKPGASVKLSCKASGYTSTSYWLHWVKQRPGRGLEWIGRIDPNSGETKFNEKFKSQATLTVDKPSSTAYMQLNSLTSEDSAVYYCALYYYGSILFDYWGQGTTLTVSS VL: ENVLTQSPAIMSASPGEKVTMTCRTSSIISSGFLHWYQQKSGASPKLWIYSTSNLASGVPARFSGSGSGTSYSLTISSVEAEDAATYYCQQYSGHPLTFGAGTKLELK"
  OBSERVED RESULT: 1.63
- BINDER: "85-D5A10 (4434), IgG1, Kappa (antibody, V domains shown) VH: EVQLQQSGPELVKPGASVKISCKASGYEFTGYHMNWVKQSPEKSLEWIGEINPITSDKTFNQKFKAKATLTVDRSSSTAYMHLKSLTSDDSAVYYCARRDYGTSLDYWGQGTTLTVSS VL: DVQITQSPSYLAASPGETITIYCRASKSISKYLAWYQEKPEKTIRLLIYAGSTLQSGIPSRFRGSGSGKDFTLTVSGLEPEDFAMYYCQQHNEYPITFGAGTKLELI"
  OBSERVED RESULT: 0.13
- BINDER: "74-H4C6 (4451), IgG1, Kappa (antibody, V domains shown) VH: EVQLQQSGPELVKPGASVKISCKASGYDFTGYHMNWVKQSPEKSLEWIGEINPITSDKTFNQKFKSKATLTVDRSSSTAYMYLKSLTSEDSAVYYCARRDYGTSLDYWGQGTTLTVSS VL: DVQITQSPSYLAASPGETITIYCRASKSISKYLAWYQEKPEKTNRLLIYAGSTLHSGIPSRFRGSGSGKDFTLTVSGLEPEDFAMYYCQQHNEYPITFGAGTKLELK"
  OBSERVED RESULT: 0.1
- BINDER: "67-H2E7, IgG1, Kappa (antibody, V domains shown) VH: EVQLQQSGPELVKPGASVKISCKASGYEFTGYHMNWVKQSPEKSLEWIGEINPITSDKTFNQKFKAKATLTVDRSSTTAYMHLKSLTSEDSAVYYCARRDYDTSLDYWGQGTTLTVSS VL: DVQITQSPSYLAASPGETITIYCRASKSISKYLAWYQEKPEKTNRLLIYAGSTLQSGIPSRFRGSGSGKDFTLTVSGLEPEDFAMYYCQQHNEYPLTFGAGTKLDLK"
  OBSERVED RESULT: 8.46
- BINDER: "79-E3H3, IgG1, Kappa (antibody, V domains shown) VH: EVQLQQSGPELVKPGASVKISCKASGYEFTGYHMNWVKQSPEKSLEWIGEINPITSDKTFNQKFKAKATLTVDRSSSTAYMHLKSLTSEDSAVYYCARRDYDTSLDYWGQGTTLTVSS VL: DVQITQSPSYLAASPGETITIYCRASKSISKYLAWYQEKPEKTNRLLIYAGSTLQSGIPSRFRGSGSGKDFTLTVSGLEPEDFAMYYCQQHNEYPLTFGAGTKLELK"
  OBSERVED RESULT: 0.44
- BINDER: "89-E8C12 (4428), IgG1, Kappa (antibody, V domains shown) VH: EVQLQQSGPELVKPGASVKISCKASGYDFTGYYMNWMKQSPEKSLEWIGEINPITSHNTFNQKFKAKATLTVDRSSSTAYMHLKSLTSEDSAVYYCARRDYGTSLDYWGQGTTLTVSS VL: DVQITQSPSYLAASPGETITIYCRASKSISKYLAWYQEKPEKTIRLLIYAGSTLQSGIPSRFRGSGSGTDFTLTVSGLEPEDFAMYYCQQHNEYPLTFGAGTKLELK"
  OBSERVED RESULT: 0.15
